From: patent US9982017B2

Task for the reader: assign each of the following compounds its reported half-life.
- METHOD: in vitro
- EXPERIMENTAL CONTEXT: rat, not told, Surrogate Activity based Plasma stability t½
Where a SMILES comes first, the peptide text is derived from it. Bridges are numbered along the chain shown (N, C = ends). [ ]: non-standard residue; d: D form. The star is where a group is joined. pGlu = O=C1CC[C@@H](C(=O)O)N1; NHPhenethyl = c1ccc(CCN*)cc1; Nle = CCCC[C@H](N)C(=O)O
Report field: quantity (unit follows the number).

Record excerpt, results attached:
COMPOUND	TEST VALUE
CCCC[C@@H]1NC(=O)[C@@H]2CCCN2C(=O)CNC(=O)[C@H](CCCCN)NC(=O)[C@H](Cc2c[nH]cn2)NC(=O)[C@@H](NC(=O)[C@H](CC(C)C)NC(=O)[C@H](CCCNC(=N)N)NC(=O)[C@@H]2CCCN2C(=O)[C@@H](N)CCCNC(=N)N)CSSC[C@@H](C(=O)N[C@@H](Cc2ccccc2)C(=O)O)NC1=O [Example 16, H-R-P-R-L-C-H-K-G-P-Nle-C-F-OH] (H-RPRLCHKGP[Nle]CF-OH; disulfide 5-11)	0.223 h
CCCC[C@@H]1NC(=O)[C@@H]2CCCN2C(=O)CNC(=O)[C@H](CCCCN)NC(=O)[C@H](Cc2cnc[nH]2)NC(=O)[C@@H](NC(=O)[C@H](CC(C)C)NC(=O)[C@H](CCCNC(=N)N)NC(=O)[C@@H]2CCCN2C(=O)[C@H](CCCNC(=N)N)NC(=O)[C@@H]2CCC(=O)N2)CSSC[C@@H](C(=O)N[C@@H](Cc2ccccc2)C(=O)O)NC1=O [Example 8] ([pGlu]RPRLCHKGP[Nle]CF-OH; disulfide 6-12)	6.78 h

Below: the item to evaluate.
Entry CCCC[C@@H]1NC(=O)[C@@H]2CCCN2C(=O)CNC(=O)[C@H](CCCCN)NC(=O)[C@H](Cc2c[nH]cn2)NC(=O)[C@@H](NC(=O)[C@H](CC(C)C)NC(=O)[C@H](CCCNC(=N)N)NC(=O)[C@@H]2CCCN2C(=O)[C@H](CCCNC(=N)N)NC(=O)[C@@H]2CCC(=O)N2)CSSC[C@@H](C(=O)NCCc2ccccc2)NC1=O [Example 12] ([pGlu]RPRLCHKGP[Nle]C-NHPhenethyl; disulfide 6-12) ; half-life = 1.6 h
